Data provenance is patent US5232923A.

# NGF Concentration values compiled below
# System: production and secretion of NGF in mouse L-M cells
# protocol.notes: Promoting activity for the production and secretion of NGF in mouse L-M cells (ELISA of medium after 24 h)
# Assay type: cell-based
# stated.conditions: Table 2; L-M cells; sample concentration 0.2 mM; 24 hours; mean of four determinations; control 0.34

compound | NGF Concentration (ng/well)
CCOC(=O)CCCc1ccc(OC(C)=O)c(OC(C)=O)c1 [Compound 55] | 1.98
CC(=O)Oc1ccc(CCC(=O)N(C)C)cc1OC(C)=O [Compound 81] | 1.96
CCNC(=O)CCCc1ccc(O)c(O)c1 [Compound 69] | 1.88
CCCCNC(=O)Cc1ccc(OC(C)=O)c(OC(C)=O)c1 [Compound 77] | 1.86
CNC(=O)CCc1ccc(O)c(O)c1 [Compound 59, N-Methyl-3,4-dihydroxyphenylpropionamide] | 1.91
CCOC(=O)CCc1ccc(OC(C)=O)c(OC(C)=O)c1 [Compound 47, Ethyl 3,4-diacetoxyphenylpropionate] | 2.14
CCOC(=O)Cc1ccc(OC(C)=O)c(OC(C)=O)c1 [Compound 51] | 1.98
NC(=O)Cc1ccc(O)c(O)c1 [Compound 62] | 1.63
CCCOC(=O)CCc1ccc(O)c(O)c1 [Compound 36] | 1.88
CCCNC(=O)CCCc1ccc(O)c(O)c1 [Compound 70] | 1.83
CCNC(=O)Cc1ccc(OC(C)=O)c(OC(C)=O)c1 [Compound 76] | 1.88
CCCCOC(=O)CCc1ccc(OC(C)=O)c(OC(C)=O)c1 [Compound 49] | 2.14
CNC(=O)CCCc1ccc(O)c(O)c1 [Compound 68] | 1.73
CCNC(=O)CCc1ccc(OC(C)=O)c(OC(C)=O)c1 [Compound 74] | 1.93
CNC(=O)Cc1ccc(O)c(O)c1 [Compound 63] | 1.98
CCCCOC(=O)CCCc1ccc(OC(C)=O)c(OC(C)=O)c1 [Compound 57] | 1.81
COC(=O)CCc1ccc(OC(C)=O)c(OC(C)=O)c1 [Compound 46] | 2.01
CCNC(=O)CCCc1ccc(OC(C)=O)c(OC(C)=O)c1 [Compound 79] | 1.82
CN(C)C(=O)CCc1ccc(O)c(O)c1 [Compound 72] | 1.94
NC(=O)CCCc1ccc(O)c(O)c1 [Compound 67] | 1.69
CCCCOC(=O)Cc1ccc(O)c(O)c1 [Compound 41] | 1.79
CCCNC(=O)Cc1ccc(O)c(O)c1 [Compound 65] | 1.77
CCCOC(=O)CCCc1ccc(OC(C)=O)c(OC(C)=O)c1 [Compound 56] | 1.73
NC(=O)CCc1ccc(O)c(O)c1 [Compound 58] | 1.88
CCCCNC(=O)CCCc1ccc(O)c(O)c1 [Compound 71] | 1.83
CCOC(=O)CCc1ccc(O)c(O)c1 [Compound 35] | 1.98
